Could you please report measured Population Normal (%) for the items listed next?
System: Fibroblast
testMethodNotes: Multiplex assay against human fibroblast
Type: toxicity, cell-based
testContext: 24 h, 10 µM, compound concentration 10 uM, replicate 1
One number for each entry, in %.

{"columns": ["compound", "testSystem", "endpointResult"],
 "data": [
  ["Cc1cc(C)c(S(=O)(=O)N(Cc2ccc(-c3cccc(S(C)(=O)=O)c3)cc2)Cc2ccc(C(F)(F)F)o2)c(C)c1", "Fibroblast", 57],
  ["O=C(Cc1ccc(-c2ccc(OCCN3CCOCC3)cc2)cn1)NCc1ccccc1 [TIRBANIBULIN]", "Fibroblast", 86],
  ["CCn1c(=O)c(-c2ccc(-c3cncs3)cc2Cl)cc2cnc(Nc3ccc(N4CCN(C)CC4)cc3)nc21", "Fibroblast", 46]
]}

Entry CCN1CCN(c2ccc(Nc3cc(N(C)C(=O)Nc4c(Cl)c(OC)cc(OC)c4Cl)ncn3)cc2)CC1 [INFIGRATINIB] under Fibroblast had Population Normal (%) of 84

====

Test system: U2OS
testMethodNotes: Multiplex assay against U2OS
Format: toxicity, cell-based
testContext: human, 24 h, 1 µM, compound concentration 1 uM, replicate 1
Classify by Population Mitotic Cells (%). Ranges: low (below 50%), moderate (50% to below 60%), high (60% or more)

Sample answers from the record:
{"columns": ["compound", "classification"],
 "data": [
  ["C=C1/C(=C\\C=C2/CCC[C@]3(C)[C@@H]([C@H](C)/C=C/[C@H](C)C(C)C)CC[C@@H]23)C[C@@H](O)C[C@@H]1O", "high"],
  ["CN(C)C(=O)C(CCN1CCC(O)(c2ccc(Cl)cc2)CC1)(c1ccccc1)c1ccccc1.Cl [LOPERAMIDE HYDROCHLORIDE]", "low"],
  ["CCOC(=O)c1c(C)[nH]c2ccc3c(c12)CN1CCc2cc(OC)ccc2C1O3 (stereo not given)", "moderate"],
  ["CCCn1c(=O)c2[nH]c(-c3cnn(Cc4cccc(C(F)(F)F)c4)c3)nc2n(CC)c1=O", "high"],
  ["O=C(Nc1ccc(-c2ccnc(Nc3ccc(N4CCOCC4)cc3)n2)cc1)[C@@H]1CCCN1", "moderate"],
  ["Cn1nc(C(F)(F)F)cc1-c1cnc(N2CCc3cc(S(=O)(=O)Nc4c(F)cc(Cl)cc4F)cc(N4CCCC4=O)c32)nc1", "high"],
  ["C=CCn1c(=O)c2cnc(Nc3ccc(N4CCN(C)CC4)cc3)nc2n1-c1cccc(C(C)(C)O)n1", "low"],
  ["COc1cccc2cc(-c3nc([C@H]4CC[C@H](C(=O)O)CC4)n4ncnc(N)c34)[nH]c12", "high"],
  ["CNC(=O)c1ccc(Nc2nc(OC3CCCC3)c3c(-c4ccc5nc(C)oc5c4)c[nH]c3n2)c(OC)c1", "low"],
  ["CCN1CCN(Cc2ccc(Nc3ncc(F)c(-c4cc(F)c5nc(C)n(C(C)C)c5c4)n3)nc2)CC1.CS(=O)(=O)O", "low"]
]}

Would you kindly look at the next entry?
# classify by Population Mitotic Cells (%) band: O=C1NC(=O)C(c2cnc3ccccn23)=C1c1cn2c3c(cc(F)cc13)CN(C(=O)N1CCCCC1)CC2
high

====

Please go through the items and note down their Population Healthy Nuclei (%).
Test system: Fibroblast
testMethodNotes: Multiplex assay against human fibroblast
Format: toxicity, cell-based
testContext: 24 h, 10 µM, compound concentration 10 uM, replicate 2
Give bare numbers, in %.

Known Population Healthy Nuclei (%) results, listed for orientation:
{"columns": ["compound", "testSystem", "endpointResult"],
 "data": [
  ["O=C(Nc1ccc(-n2nc(-c3cccnc3)cc2C(F)(F)F)cn1)c1ccc(-c2ccccc2)c(F)c1", "Fibroblast", 84],
  ["COC(=N)c1nc2ccc3ncnc(Nc4ccc(OC)cc4F)c3c2s1", "Fibroblast", 37],
  ["Cl.O=c1c2cccn2c2ccccc2n1CCCN1CCC(c2ccc(Cl)cc2)CC1", "Fibroblast", 64],
  ["COCC(=O)NC/C=C/c1ccc2ncnc(Nc3ccc(Oc4ccc(C)nc4)c(C)c3)c2c1", "Fibroblast", 54],
  ["O=C(Cc1ccc(-c2ccc(OCCN3CCOCC3)cc2)cn1)NCc1ccccc1", "Fibroblast", 57]
]}

Go through the list and state Population Healthy Nuclei (%) for each entry.
1. CCCn1c(=O)c2[nH]c(-c3cnn(Cc4cccc(C(F)(F)F)c4)c3)nc2n(CC)c1=O
2. CCn1cc(-c2ccnc3[nH]c(-c4cccc(CN(C)C)c4)cc23)c(-c2ccc(NC(=O)N(C)C)cc2)n1
3. CN1C2CCC1CC(OC(c1ccc(F)cc1)c1ccc(F)cc1)C2.Cl (stereo not drawn)

1: 72; 2: 40; 3: 64

====

Test system: U2OS
testMethodNotes: Incucyte cell viability with U2OS; further: filed as whole numbers so only -1 and 0 and 1 occur
Assay type: toxicity, cell-based
testContext: human, 6 h, 10 µM, compound concentration 10 uM, replicate number 1, timepoint 6 hours
observationType: Growth Rate
Answers are plain numbers.

{"columns": ["smilesData", "Growth Rate"],
 "data": [
  ["CCOc1cc(C(=O)N2CCC(N3CCN(C)CC3)CC2)ccc1Nc1ncc2c(n1)N(C1CCCC1)c1ccccc1C(=O)N2C", 1],
  ["O=C1NC(=O)C(c2cnc3ccccn23)=C1c1cn2c3c(cc(F)cc13)CN(C(=O)N1CCCCC1)CC2", 0],
  ["c1ccc(Nc2nc3c(s2)CCCc2[nH]ncc2-3)nc1", 1],
  ["C[C@H]1Oc2cc(cnc2N)-c2c(nn(C)c2C#N)CN(C)C(=O)c2ccc(F)cc21", 1]
]}

Below are some compounds; for each one, tell me its Growth Rate.
1. Cc1nc(NC(=O)N2CCC[C@H]2C(N)=O)sc1-c1ccnc(C(C)(C)C(F)(F)F)c1
2. Cl.O=C([C@@H](Cc1cccc(C(F)(F)F)c1)NS(=O)(=O)c1cc(F)c2c(c1)CCNC2)N1CCCC1

1: 1; 2: 0

// each compound listed below needs its Growth Rate
1. CN(C)C(=O)c1cc2cnc(Nc3ccc(N4CCNCC4)cn3)nc2n1C1CCCC1
2. C=CC(=O)N1CCC([C@@H]2CCNc3c(C(N)=O)c(-c4ccc(Oc5ccccc5)cc4)nn32)CC1

0
0

====

Tested on: Fibroblast
testMethodNotes: Multiplex assay against human fibroblast
Format: toxicity, cell-based
testContext: 24 h, 1 µM, compound concentration 1 uM, replicate 1
Would you kindly list Population Membrane Permeable-Phenotype (%) for each of these compounds?
One number for each entry, in %.

Look over these answered cases.
{"columns": ["smilesData", "endpointResult"],
 "data": [
  ["CCc1cccc(CC)c1NC(=O)c1nn(C)c2c1CCc1cnc(Nc3ccc(C(=O)NC4CCN(C)CC4)cc3OC(F)(F)F)nc1-2", 23],
  ["Cc1ccc2nc(NCCN)c3ncc(C)n3c2c1.O=C(O)C(F)(F)F.O=C(O)C(F)(F)F", 4],
  ["O=C(Cc1ccc(-c2ccc(OCCN3CCOCC3)cc2)cn1)NCc1ccccc1", 37]
]}

// field: Population Membrane Permeable-Phenotype (%); key: Cl.O=c1c2cccn2c2ccccc2n1CCCN1CCC(c2ccc(Cl)cc2)CC1 ; value = 12

====

System: U2OS
testMethodNotes: Multiplex assay against U2OS
Assay type: toxicity, cell-based
testContext: human, 24 h, 10 µM, compound concentration 10 uM, replicate 1
I'd appreciate it if you could supply Population Healthy Nuclei (%) values for the items below.
Answers are plain numbers, in %.

Example entries and their recorded answers appear below.
{"columns": ["molecule", "observationType", "endpointResult"],
 "data": [
  ["O=C(Cc1ccc(-c2ccc(OCCN3CCOCC3)cc2)cn1)NCc1ccccc1 [TIRBANIBULIN]", "Population Healthy Nuclei (%)", 64],
  ["O=C1NC(=O)C(c2cnc3ccccn23)=C1c1cn2c3c(cc(F)cc13)CN(C(=O)N1CCCCC1)CC2 [LY-2090314]", "Population Healthy Nuclei (%)", 59],
  ["O=C(Nc1cccnn1)N1CCC(=Cc2cccc(Oc3ccc(C(F)(F)F)cn3)c2)CC1", "Population Healthy Nuclei (%)", 95],
  ["CCOc1cc(C(=O)N2CCC(N3CCN(C)CC3)CC2)ccc1Nc1ncc2c(n1)N(C1CCCC1)c1ccccc1C(=O)N2C", "Population Healthy Nuclei (%)", 17]
]}

Please state, for each entry, its recorded Population Healthy Nuclei (%).
1. NC(=O)c1cccc(-c2cc(Nc3ccc(OC(F)(F)F)cc3)ncn2)c1
2. CN1C2CCC1CC(OC(c1ccc(F)cc1)c1ccc(F)cc1)C2.Cl (stereo not drawn)

90
65

Your task in this section: give Population Healthy Nuclei (%) for each listed record.
1. S=C(NCCCc1c[nH]cn1)NCCCN(Cc1ccc(Cl)c(Cl)c1)c1ccc(Br)cn1
2. Cn1nc(C(F)(F)F)cc1-c1cnc(N2CCc3cc(S(=O)(=O)Nc4c(F)cc(Cl)cc4F)cc(N4CCCC4=O)c32)nc1 [TP-020]

[5, 91]

====

Test system: HEK-293T
testMethodNotes: Multiplex assay against HEK293T
Format: toxicity, cell-based
testContext: human, 24 h, 10 µM, compound concentration 10 uM, replicate 2
Decide using Population Apoptotic (%): a value greater than or equal to 20% is 1, a smaller one is 0.

{"columns": ["compound", "classification"],
 "data": [
  ["CNC(=O)c1ccc(Nc2nc(OC3CCCC3)c3c(-c4ccc5nc(C)oc5c4)c[nH]c3n2)c(OC)c1", 0],
  ["O=C(Cc1ccc(-c2ccc(OCCN3CCOCC3)cc2)cn1)NCc1ccccc1", 1],
  ["O=C1N/C(=N/c2ccccc2F)S/C1=C\\c1ccc(C(=O)O)cc1", 0],
  ["Cl.O=c1c2cccn2c2ccccc2n1CCCN1CCC(c2ccc(Cl)cc2)CC1", 1],
  ["CN1C2CCC1CC(OC(c1ccc(F)cc1)c1ccc(F)cc1)C2.Cl (stereo not drawn)", 1],
  ["O=C(Nc1ccc(-n2nc(-c3cccnc3)cc2C(F)(F)F)cn1)c1ccc(-c2ccccc2)c(F)c1", 0],
  ["CN1CCN(C(=O)C(C)(C)c2ccc(C(=O)Nc3cn4cc(-c5cc(C(C)(C)C)cc(C(C)(C)C)c5)ccc4n3)cc2)CC1", 0],
  ["CCN1CCN(c2ccc(Nc3cc(N(C)C(=O)Nc4c(Cl)c(OC)cc(OC)c4Cl)ncn3)cc2)CC1", 0]
]}

# check: Population Apoptotic (%) of COC(=N)c1nc2ccc3ncnc(Nc4ccc(OC)cc4F)c3c2s1 is greater than or equal to 20%
0

Identify whether the reported Population Apoptotic (%) of the following compound is 20% or greater: CN(C)C(=O)C(CCN1CCC(O)(c2ccc(Cl)cc2)CC1)(c1ccccc1)c1ccccc1.Cl [LOPERAMIDE HYDROCHLORIDE]
1

In plain terms: is recorded Population Apoptotic (%) at least 20% for COc1ccc(-c2ccc3c(N4CCOCC4)nc(N4C[C@@H](C)O[C@@H](C)C4)nc3n2)cc1CO ?
0

Given the entry CCN1CCN(Cc2ccc(Nc3ncc(F)c(-c4cc(F)c5nc(C)n(C(C)C)c5c4)n3)nc2)CC1.CS(=O)(=O)O , answer whether its Population Apoptotic (%) meets or surpasses 20%.
1

Reported Population Apoptotic (%) reaches at least 20% for CCOc1cc(C(=O)N2CCC(N3CCN(C)CC3)CC2)ccc1Nc1ncc2c(n1)N(C1CCCC1)c1ccccc1C(=O)N2C ?
1

Exam item: decide whether the reported Population Apoptotic (%) for COc1cc(N2CCN(C)CC2)ccc1Nc1ncc2c(n1)N(C)c1ccccc1C(=O)N2C is at least 20%.
1

I'd appreciate it if you could say whether Cc1ccc(C(=O)Nc2cccc(C(F)(F)F)c2)cc1Nc1nc(-c2cccnc2)nc2c1cnn2C has Population Apoptotic (%) at least equal to 20%.
1

Test whether the compound O=C(Nc1ccc(Cl)cc1)Nc1cccc(-c2cccc(N3CCCC3)n2)c1 records Population Apoptotic (%) of 20% or higher.
1

Kindly determine if Population Apoptotic (%) recorded for O=C(Nc1ccc(-c2ccnc(Nc3ccc(N4CCOCC4)cc3)n2)cc1)[C@@H]1CCCN1 is above or exactly 20%.
1

Reported Population Apoptotic (%) at or above 20%? CN1CCC(=C2c3ccccc3CC(=O)c3sccc32)CC1.O=C(O)/C=C/C(=O)O [KETOTIFEN FUMARATE]
1

State whether the measured Population Apoptotic (%) reaches 20%, counting equality as reaching it, for CCCS(=O)(=O)Nc1ccc(F)c(C(=O)c2c[nH]c3ncc(Cl)cc23)c1F
0

Say whether C=C1/C(=C\C=C2/CCC[C@]3(C)[C@@H]([C@H](C)/C=C/[C@H](C)C(C)C)CC[C@@H]23)C[C@@H](O)C[C@@H]1O shows Population Apoptotic (%) of 20% or more.
1

# bool: Population Apoptotic (%) of O=C(Nc1cccnn1)N1CCC(=Cc2cccc(Oc3ccc(C(F)(F)F)cn3)c2)CC1 >= 20%
0

Population Apoptotic (%) >= 20% for O=C1NC(=O)C(c2cnc3ccccn23)=C1c1cn2c3c(cc(F)cc13)CN(C(=O)N1CCCCC1)CC2 ?
1

Determine whether measured Population Apoptotic (%) meets or exceeds 20% for CCCn1c(=O)c2[nH]c(-c3cnn(Cc4cccc(C(F)(F)F)c4)c3)nc2n(CC)c1=O
0

Given the entry CCn1c(=O)c(-c2ccc(-c3cncs3)cc2Cl)cc2cnc(Nc3ccc(N4CCN(C)CC4)cc3)nc21 , answer whether its Population Apoptotic (%) meets or surpasses 20%.
1

Evaluate Cc1cn(-c2cc(NC(=O)c3ccc(C)c(Nc4nccc(-c5cccnc5)n4)c3)cc(C(F)(F)F)c2)cn1 : Population Apoptotic (%) at minimum 20%?
1

Does Population Apoptotic (%) meet or surpass 20% for CCOc1cc2ncc(C#N)c(Nc3ccc(OCc4ccccn4)c(Cl)c3)c2cc1NC(=O)/C=C/CN(C)C ?
1

Please indicate if the recorded Population Apoptotic (%) for CNc1cc(Oc2cc(C(=O)Nc3cc(N4CCN(C)CC4)cc(C(F)(F)F)c3)ccc2C)ncn1 meets or exceeds 20%.
1

Determine whether this compound has Population Apoptotic (%) no lower than 20%: CCn1cc(-c2ccnc3[nH]c(-c4cccc(CN(C)C)c4)cc23)c(-c2ccc(NC(=O)N(C)C)cc2)n1
0

Identify whether the reported Population Apoptotic (%) of the following compound is 20% or greater: COCC(=O)NC/C=C/c1ccc2ncnc(Nc3ccc(Oc4ccc(C)nc4)c(C)c3)c2c1
1

Data credit: ChEMBL document CHEMBL4689842
